# Tested on: NCI-H522
# ASSAY PROCEDURE: NCI tumour cell line growth inhibition, 48 h
Structures can show the parent of a compound that is named as a salt. Activity calls are given as the source filed them. No stated cut-off is given here; in the data, active = GI50 up to about 1.1 µM and inactive = higher.
So I've got a bunch of compounds here, and I need their GI50 values.

Problem: Entry under review: COc1ccc2c(c1)C(=O)OCCC2 . Reported GI50?
Solution: > 100 µM (inactive)

Problem: Cool, now CC1CC2C3CCC4=CC(=O)C=CC4(C)C3(F)C(O)CC2(C)C1(O)C(=O)CO.Cc1nnc(NS(=O)(=O)c2ccc(/N=N/c3cc(/N=N/c4ccc(S(=O)(=O)Nc5nnc(C)s5)cc4)c4c(NC(=O)C(Cl)Cl)cccc4c3OC(=O)C(Cl)Cl)cc2)s1
Solution: 21.6 µM (inactive)

Problem: Cool, now CC1=NOC(=O)/C1=C/c1ccc([N+](=O)[O-])cc1
Solution: > 100 µM (inactive)

Problem: Cool, now NCCCCNCCCNC(=O)c1nc(-c2csc(CCN)n2)sc1Cl
Solution: > 100 µM (inactive)

Problem: Cool, now N=C(N)NCC1CCCCCCN1 (stereo not given)
Solution: > 100 µM (inactive)

Problem: Cool, now CNc1ccc(/C=C2\C=Cc3ccccc32)cc1
Solution: 10.8 µM (inactive)

Problem: Cool, now COC(=O)c1ccccc1CC1Cc2cc3c(cc2C1)CCC3
Solution: 28.6 µM (inactive)

Problem: Cool, now CCOC(=O)N(C)C1(c2ccccc2)CCN(CCCC(=O)c2ccc(F)cc2)CC1
Solution: 87.9 µM (inactive)

Problem: Cool, now CNNCc1ccc(C(=O)NC(C)C)cc1 [PROCARBAZINE HYDROCHLORIDE]
Solution: > 500 µM (inactive)

Problem: Cool, now CC1CC(c2ccc(Cl)c(Cl)c2)=Nc2ccccc2S1 (stereo not given)
Solution: > 100 µM (inactive)

Hey, just so you know, these numbers are from ChEMBL document CHEMBL1201862.
